- Test system: L1210 leukemia ip in BDF1 mice, survival T/C
- protocol.details: NCI In Vivo Anticancer Drug Screen. Data for tumor model L1210 Leukemia (intraperitoneal) in B6D2F1 (BDF1) mice
- protocol.conditions: endpoint: mean survival time; dose: 400.0 mg/kg/injection; schedule: Q04DX003 (ip); vehicle: Klucel (hydroxypropylcellulose) (HPC); higher = longer survival
Inconclusive results and toxic doses are left out.
Each entry below carries its recorded T/C.

Recorded T/C, per entry:
CN(C)Cc1cccc(-c2ccccc2)c1O ... 98 % of control
O=C(O)c1ccc(S(=O)(=O)c2ccc(C(=O)O)cc2)cc1 ... 88 % of control
O=c1[nH]cc(CCc2ccccc2)c(=O)[nH]1 ... 93 % of control
CN1C(=O)OC2(CCN(Cc3ccc([N+](=O)[O-])o3)CC2)C1=O ... 98 % of control
O=CNc1ccccc1Sc1ccc(C(=O)O)cc1[N+](=O)[O-] ... 104 % of control
CCC/C(=C\C(=O)O)CC ... 98 % of control

Next:
Give the measured T/C of CCOC(=O)C(=Cc1cccc2ccccc12)C(=O)OCC .
92 % of control

----------
- System: L1210 leukemia ip in BDF1 mice, survival T/C
- protocol.details: NCI In Vivo Anticancer Drug Screen. Data for tumor model L1210 Leukemia (intraperitoneal) in B6D2F1 (BDF1) mice
- protocol.conditions: endpoint: mean survival time; dose: 100.0 mg/kg/injection; schedule: Q04DX003 (ip); vehicle: saline sonified; higher = longer survival
Inconclusive results and toxic doses are left out.
Let's look at some compounds and their measured T/C.

C#CC(C)OCC1CO1 (centres undefined) ... 117 % of control
O=C1NCCCN1 ... 104 % of control
O=S1(=O)CCCCC1 ... 95 % of control

// below: T/C requested for another compound
Kindly state the measured T/C obtained for CC1CC(C)(C)N=C(CCC2CCCC23OCCO3)O1 (centres undefined) with L1210 leukemia ip in BDF1 mice, survival T/C.
101 % of control

----------
- System: L1210 leukemia ip in BDF1 mice, survival T/C
- protocol.details: NCI In Vivo Anticancer Drug Screen. Data for tumor model L1210 Leukemia (intraperitoneal) in B6D2F1 (BDF1) mice
- protocol.conditions: endpoint: mean survival time; dose: 100.0 mg/kg/injection; schedule: Q04DX002 (ip); vehicle: saline; higher = longer survival
Toxic doses and inconclusive results are not listed.
T/C overview

Recorded T/C of NCCNC12CC3CC(CC(C3)C1)C2 , please.
113 % of control

// returns reported T/C for input CC1C(O)C(O)C(C(=O)O)ON1C(=O)c1ccccc1 (stereo not drawn)
100 % of control

Given the compound CCC(O)C1CCCO1 (stereo not drawn) , what is its reported T/C?
103 % of control

# query: T/C of entry O=C(O)CSC(SCC(=O)O)c1ccc(Cl)cc1Cl
94 % of control

Field request: T/C | item: NC(CCl)=NCCC1=NCCN1
100 % of control

# T/C lookup, item NCCCN1CCCN=C1C1=NCCCN1CCCN
100 % of control

----------
- Tested on: L1210 leukemia ip in BDF1 mice, survival T/C
- protocol.details: NCI In Vivo Anticancer Drug Screen. Data for tumor model L1210 Leukemia (intraperitoneal) in B6D2F1 (BDF1) mice
- protocol.conditions: endpoint: mean survival time; dose: 25.0 mg/kg/injection; schedule: Q01DX009 (ip); vehicle: saline
Toxic doses and inconclusive results are not listed. Cut-off read from the data, not from the text of the source: active = T/C of 150% or more; inactive = T/C below 125%.
Respond only with the outcome that fits, drawn from active, inactive

Solved entries (count: 6):
O=S(=O)(O)O.[N-]=C(N)/N=C(\[NH-])N.[N-]=C(N)/N=C(\[NH-])N.[N-]=C(N)NC(=[N-])N.[Rh+3] ... inactive
O=C(Nc1ccc(Cl)c(Cl)c1)Nc1c(Oc2ccc(Cl)c(Cl)c2)ccc(Cl)c1S(=O)(=O)O ... inactive
CN(C)CCCn1c2c(c3ccccc31)CCCCCC2 ... inactive
CCC1CC[N-]CC1.CCC1CC[N-]CC1.[Cl][Pt+2]([Cl])([Cl])[Cl] ... inactive
COc1ccc(/C=C/[N+](=O)[O-])cc1O ... inactive
O=[N+]([O-])c1ccc(CSC2=NCCN2)cc1 ... inactive

What is the recorded call for this compound in the test? COC1C2CCC1[N+](C)(C)CC2 (stereo unspecified)
inactive

Which outcome was assigned to Cc1cc[n+](Cc2ccccc2Cl)cc1 in this test?
inactive

Answer briefly: the call reported for C/C(=N/N(C)C)c1ccc(F)cc1 in this assay.
inactive

Test call for this compound, please: Cn1cnc([N+](=O)[O-])c1[Se]c1nc(N)nc2c1ncn2C1CC(O)C(CO)O1 (stereo unspecified)
active

Answer briefly: the call reported for CCN(CC)C(=O)C1CN2CCc3cc(OC)c(OC)cc3C2CC1O (stereo unspecified) in this assay.
inactive

----------
# T/C annotations
- System: L1210 leukemia ip in BDF1 mice, survival T/C
- protocol.details: NCI In Vivo Anticancer Drug Screen. Data for tumor model L1210 Leukemia (intraperitoneal) in B6D2F1 (BDF1) mice
- protocol.conditions: endpoint: mean survival time; dose: 200.0 mg/kg/injection; schedule: Q04DX003 (ip); vehicle: saline; higher = longer survival
- Method: The antitumor activity of compounds was measured in mice bearing transplantable tumors. Survival or tumor size were measured and the results are expressed as the measurement made in the treated group (T) divided by the measurement made in the vehicle treated control group (C). The tumor model used in this assay is L1210 Leukemia (intraperitoneal) in B6D2F1 (BDF1) mice
Toxic doses and inconclusive results are not listed.

Guide cases for T/C, answers given:
CCNC(=O)C1C2CCC(C2)C1C(=O)NCC (stereo not drawn) ... 87 % of control
Cc1cc(=O)[nH]c2c1CCC2 ... 108 % of control
CC(O)C(=O)OCCOc1ccc(Cl)cc1Cl (stereo not drawn) ... 100 % of control
CSc1ccc(NC(=O)Nc2c(C)n(C)n(-c3ccccc3)c2=O)cc1 ... 94 % of control
O=C(CCl)NCc1ccc(Cl)c(C(=O)O)c1 ... 88 % of control

Request: T/C, test system L1210 leukemia ip in BDF1 mice, survival T/C, entry O=S1(=O)CCOCC1
95 % of control

----------
- Test system: L1210 leukemia ip in BDF1 mice, survival T/C
- protocol.details: NCI In Vivo Anticancer Drug Screen. Data for tumor model L1210 Leukemia (intraperitoneal) in B6D2F1 (BDF1) mice
- protocol.conditions: endpoint: mean survival time; dose: 200.0 mg/kg/injection; schedule: Q01DX001 (ip); vehicle: saline with Tween-80; higher = longer survival
Inconclusive results and toxic doses are left out.
readout.type: T/C

CN(C)C(=O)Nc1cccc(OC(=O)NC2CCCCC2)c1 ... 92 % of control
Cc1ccc(Cl)cc1NC(=O)Nc1ccccc1O ... 95 % of control

Quick one: T/C of CCCCCCP(=O)(CCCCCC)C1CCCCC1 ?
97 % of control

// T/C lookup, key: CCCCCCCCCCCCCCCCC
108 % of control

----------
Reported T/C values for the following molecules.
- Tested on: L1210 leukemia ip in BDF1 mice, survival T/C
- protocol.details: NCI In Vivo Anticancer Drug Screen. Data for tumor model L1210 Leukemia (intraperitoneal) in B6D2F1 (BDF1) mice
- protocol.conditions: endpoint: mean survival time; dose: 12.5 mg/kg/injection; schedule: Q04DX003 (ip); vehicle: saline; higher = longer survival
Inconclusive results and toxic doses are left out.

# lookup: T/C of Oc1c(O)c(Cl)c(Cl)c(Cl)c1Cl
97 % of control

Entry Cc1cc[n+](Cc2ccccc2Cl)cc1 has what T/C?
107 % of control

T/C for CCC1CC[N-]CC1.CCC1CC[N-]CC1.[Cl][Pt+2]([Cl])([Cl])[Cl] ?
97 % of control

If you can, please state the reported T/C value of O=S(=O)(O)O.[N-]=C(N)/N=C(\[NH-])N.[N-]=C(N)/N=C(\[NH-])N.[N-]=C(N)NC(=[N-])N.[Rh+3] .
91 % of control

Would you mind telling me what T/C value was observed for NC(CS)=NC1CCCC1 ?
108 % of control

I would be grateful if you could share the reported T/C for O=S(=O)(C=C(N1CCCCC1)N1CCCCC1)Cc1ccccc1 .
94 % of control

----------
The entries below come with measured T/C values attached.
- System: L1210 leukemia ip in BDF1 mice, survival T/C
- protocol.details: NCI In Vivo Anticancer Drug Screen. Data for tumor model L1210 Leukemia (intraperitoneal) in B6D2F1 (BDF1) mice
- protocol.conditions: endpoint: mean survival time; dose: 100.0 mg/kg/injection; schedule: Q04DX002 (ip); vehicle: saline with Tween-80; higher = longer survival
- Method: The antitumor activity of compounds was measured in mice bearing transplantable tumors. Survival or tumor size were measured and the results are expressed as the measurement made in the treated group (T) divided by the measurement made in the vehicle treated control group (C). The tumor model used in this assay is L1210 Leukemia (intraperitoneal) in B6D2F1 (BDF1) mice
Inconclusive results and toxic doses are left out.

Solved entries:
O=S1(=O)N=C(Sc2ccccc2)c2ccccc21 ... 102 % of control
O=C(N/N=C/c1ccco1)c1ccccc1 ... 96 % of control

What measured T/C goes with O=C(O)CCC(Nc1sc([N+](=O)[O-])cc1[N+](=O)[O-])C(=O)O (stereo not given) ?
95 % of control

Fill blank: measured T/C of the compound [O-][n+]1onc(-c2ccccn2)c1-c1ccccn1 is ____.
95 % of control

Record request: T/C value, item N#C/C(=C\C1CCCCC1Cl)C1CCC([N+](=O)[O-])CC1 (stereo not given)
91 % of control

Please give the measured T/C for this compound: OCCNc1nn2ccnc2c2ccccc12
92 % of control

Sample O=C(OCc1ccc2c(c1)OCO2)C1CC1 — what was its T/C?
103 % of control
